Reference source: ChEMBL document CHEMBL4190345

- Tested on: Fusarium verticillioides
- Test Details: Fungicidal activity against Fusarium moniliforme grown under potato-saccharose agar assessed as inhibition of mycelial radial growth at 30 mg/l incubated for 72 hrs
- Format: functional
- Test Settings: read-out: GI
# inhibition of growth at 30 µg/mL per entry
Lab book: enter the figure in %, no units written.

Observe how each entry below is paired with its result.
| Compound | inhibition of growth at 30 µg/mL (%) |
| --- | --- |
| CSC1=NC2C(N(C)C(=O)N2C)N1/N=C/C=C/c1ccccc1[N+](=O)[O-] (stereo unspecified) | 19 |
| CN1C(=O)N(C)C2C1N=C(SCc1ccc(Cl)cc1)N2/N=C/C=C/c1ccco1 (stereo unspecified) | 42 |
| CN1C(=O)N(C)C2C1N=C(SCc1ccc(Cl)cc1)N2/N=C/C=C/c1ccccc1 (stereo unspecified) | 57 |
| CCSC1=NC2C(N(C)C(=O)N2C)N1/N=C/C=C/c1ccccc1 (stereo unspecified) | 71 |
| CSC1=NC2C(N(C)C(=O)N2c2ccccc2)N1/N=C/C=C/c1ccccc1[N+](=O)[O-] (stereo unspecified) | 9 |

Provide one value: measured inhibition of growth at 30 µg/mL of COc1ccccc1/C=C/C=N/N1C(SC)=NC2C1N(C)C(=O)N2C (stereo unspecified) 14

Provide one value: measured inhibition of growth at 30 µg/mL of CC(C)(C)C(=O)C(Oc1ccc(Cl)cc1)n1cncn1 (stereo unspecified) 61

Provide one value: measured inhibition of growth at 30 µg/mL of CSC1=NC2C(N(C)C(=O)N2C)N1/N=C/C=C/c1ccccc1 (stereo unspecified) 73

----------
- System: Jurkat
- Test Details: Induction of apoptosis in human Jurkat cells assessed as apoptotic cells level at 5 uM incubated for 24 hrs by annexin V and Alexa Fluor 488 dye staining based flow cytometry (reference value: 2.62%)
- Format: functional
# Apoptotic cells per entry
Lab book: enter the figure in %, no units written.

Observe how each entry below is paired with its result.
| Molecule | Endpoint Label | Scale Unit | Numeric Readout |
| --- | --- | --- | --- |
| CCN1C(=O)N(CC)C2C1NC(=S)N2/N=C/C=C/c1ccccc1OC (centres undefined) | Apoptotic cells | % | 3.02 |
| CN1C(=O)N(C)C2C1NC(=S)N2/N=C/C=C/c1ccccc1[N+](=O)[O-] (centres undefined) | Apoptotic cells | % | 3.18 |
| CC[C@@]1(O)C(=O)OCc2c1cc1n(c2=O)Cc2cc3ccccc3nc2-1 | Apoptotic cells | % | 32.64 |

Provide one value: measured Apoptotic cells of COc1ccccc1/C=C/C=N/N1C(=S)NC2C1N(C)C(=O)N2c1ccccc1 (centres undefined) 3.1

----------
# Activity per entry
- System: Jurkat
- Test Details: Induction of apoptosis in human Jurkat cells assessed as viable cells level at 5 uM incubated for 24 hrs by annexin V and Alexa Fluor 488 dye staining based flow cytometry (reference value: 92.408%)
- Type: functional
Lab book: enter the figure in %, no units written.

| Compound | Scale Unit | Activity |
| --- | --- | --- |
| CN1C(=O)N(C)C2C1NC(=S)N2/N=C/C=C/c1ccccc1[N+](=O)[O-] (centres undefined) | % | 56.128 |
| COc1ccccc1/C=C/C=N/N1C(=S)NC2C1N(C)C(=O)N2c1ccccc1 (centres undefined) | % | 56.076 |
| CC[C@@]1(O)C(=O)OCc2c1cc1n(c2=O)Cc2cc3ccccc3nc2-1 | % | 37.372 |

Shift focus to the following entry.
Provide Activity, system Jurkat, entry CCN1C(=O)N(CC)C2C1NC(=S)N2/N=C/C=C/c1ccccc1OC (centres undefined) 50.468

----------
- Test system: RD
- Test Details: Cytotoxicity in human RD cells assessed as inhibition of cell growth incubated for 72 hrs by MTT assay
- Format: functional, cell-based
Response field label takes label 1 when IC50 is strictly below 2 µM and label 0 in all other cases.

Use these answered entries as a reference point.
| Compound | Qualitative Label |
| --- | --- |
| CCSC1=NC2C(N(CC)C(=O)N2CC)N1/N=C/C=C/c1ccccc1[N+](=O)[O-] (stereo not drawn) | label 0 |
| CN1C(=O)N(C)C2C1NC(=S)N2/N=C/C=C/c1ccccc1[N+](=O)[O-] (stereo not drawn) | label 0 |
| CCN1C(=O)N(CC)C2C1NC(=S)N2/N=C/C=C/c1ccccc1 (stereo not drawn) | label 0 |
| COc1ccc(/C=C/C=N/N2C(=S)NC3C2N(C)C(=O)N3C)cc1 (stereo not drawn) | label 0 |

# check: IC50 < 2 µM for CSC1=NC2C(N(C)C(=O)N2C)N1/N=C/C=C/c1ccccc1[N+](=O)[O-] (stereo not drawn) label 0

# check: IC50 < 2 µM for CCN1C(=O)N(c2ccccc2)C2NC(=S)N(/N=C/C=C/c3ccccc3)C21 (stereo not drawn) label 1

# check: IC50 < 2 µM for COc1cccc2c1C(=O)c1c(O)c3c(c(O)c1C2=O)C[C@@](O)(C(=O)CO)C[C@@H]3O[C@H]1C[C@H](N)[C@H](O)[C@H](C)O1 label 1

# check: IC50 < 2 µM for CCN1C(=O)N(CC)C2C1NC(=O)N2/N=C/C=C/c1ccccc1[N+](=O)[O-] (stereo not drawn) label 1

# check: IC50 < 2 µM for COc1cccc2c1C(=O)c1c(O)c3c(c(O)c1C2=O)C[C@@](O)(C(C)=O)C[C@@H]3O[C@H]1C[C@H](N)[C@H](O)[C@H](C)O1 label 0

# check: IC50 < 2 µM for COc1ccccc1/C=C/C=N/N1C(=S)NC2C1N(C)C(=O)N2c1ccccc1 (stereo not drawn) label 1

# check: IC50 < 2 µM for CN1C(=O)N(c2ccccc2)C2NC(=S)N(/N=C/C=C/c3ccccc3)C21 (stereo not drawn) label 1

# check: IC50 < 2 µM for CCN1C(=O)N(CC)C2C1NC(=S)N2/N=C/C=C/c1ccccc1OC (stereo not drawn) label 1

# check: IC50 < 2 µM for CN1C(=O)N(C)C2C1NC(=S)N2/N=C/C=C/c1ccccc1 (stereo not drawn) label 0

# check: IC50 < 2 µM for CCN1C(=O)N(CC)C2C1N=C(SC)N2/N=C/C=C/c1ccccc1 (stereo not drawn) label 0

# check: IC50 < 2 µM for CCN1C(=O)N(CC)C2C1N=C(SC)N2/N=C/C=C/c1ccccc1[N+](=O)[O-] (stereo not drawn) label 0

# check: IC50 < 2 µM for CCN1C(=O)N(CC)C2C1N=C(SC)N2/N=C/C=C/c1ccccc1OC (stereo not drawn) label 0

# check: IC50 < 2 µM for CC(/C=N/N1C(=S)NC2C1N(C)C(=O)N2C)=C\c1ccccc1 (stereo not drawn) label 0

# check: IC50 < 2 µM for CCN1C(=O)N(CC)C2C1NC(=S)N2/N=C/C(C)=C/c1ccccc1 (stereo not drawn) label 0

# check: IC50 < 2 µM for CCN1C(=O)N(CC)C2C1NC(=S)N2/N=C/C=C/c1ccc(OC)cc1 (stereo not drawn) label 0

# check: IC50 < 2 µM for CCN1C(=O)N(c2ccccc2)C2NC(=S)N(/N=C/C=C/c3ccccc3OC)C21 (stereo not drawn) label 0

# check: IC50 < 2 µM for CCN1C(=O)N(CC)C2C1NC(=S)N2/N=C/C=C/c1ccccc1[N+](=O)[O-] (stereo not drawn) label 0

# check: IC50 < 2 µM for CC[C@@]1(O)C(=O)OCc2c1cc1n(c2=O)Cc2cc3ccccc3nc2-1 label 0

----------
- Tested on: Fusarium verticillioides
- Test Details: Fungicidal activity against Fusarium moniliforme grown under potato-saccharose agar assessed as inhibition of mycelial radial growth at 30 mg/l incubated for 72 hrs
- Assay type: functional
- Test Settings: read-out: GI
# inhibition of growth at 30 µg/mL per entry
Lab book: enter the figure in %, no units written.

Observe how each entry below is paired with its result.
| Molecule | Scale Unit | inhibition of growth at 30 µg/mL |
| --- | --- | --- |
| COc1ccc(/C=C/C=N/N2C(SC)=NC3C2N(C)C(=O)N3C)cc1 (stereo not drawn) | % | 36 |
| CCN1C(=O)N(CC)C2C1N=C(SCc1ccc(Cl)cc1)N2/N=C/C=C/c1ccccc1OC (stereo not drawn) | % | 13 |

Shift focus to the following entry.
Provide inhibition of growth at 30 µg/mL, system Fusarium verticillioides, entry CCN1C(=O)N(CC)C2C1NC(=S)N2/N=C/C=C/c1ccc(OC)cc1 (stereo not drawn) 23

----------
- System: Jurkat
- Test Details: Induction of apoptosis in human Jurkat cells assessed as damaged cells level at 5 uM incubated for 6 hrs by annexin V and Alexa Fluor 488 dye staining based flow cytometry (reference value: 0.07%)
- Format: functional
# Activity per entry
Lab book: enter the figure in %, no units written.

Observe how each entry below is paired with its result.
| Molecule | System Under Test | Scale Unit | Activity |
| --- | --- | --- | --- |
| CN1C(=O)N(C)C2C1NC(=S)N2/N=C/C=C/c1ccccc1[N+](=O)[O-] (centres undefined) | Jurkat | % | 0.06 |
| CCN1C(=O)N(CC)C2C1NC(=S)N2/N=C/C=C/c1ccccc1OC (centres undefined) | Jurkat | % | 0.1 |
| CC[C@@]1(O)C(=O)OCc2c1cc1n(c2=O)Cc2cc3ccccc3nc2-1 [CAMPTOTHECIN] | Jurkat | % | 0.12 |

Shift focus to the following entry.
Provide one value: measured Activity of COc1ccccc1/C=C/C=N/N1C(=S)NC2C1N(C)C(=O)N2c1ccccc1 (centres undefined) 0.14
